Item-by-item account of kf
experiment: Folding and unfolding kinetics (Chevron plot, stopped-flow CD, GuHCl)
Type: physicochemical
particulars: folding rate constant extrapolated to 0M GuHCl, global Chevron fit
Experimental: Due to signal-to-noise considerations, relatively high protein concentrations (>100 μM) of FGF-1 were required for kinetic studies monitored by CD. At these concentrations protein precipitation occurred in ADA buffer. […] Protein samples were degassed for 10 minutes prior to analysis. […] Data collection times for each protein were designed to quantify the CD signal over 5 half-lives, or >96% of the total expected amplitude. […]
Just the number please, in s⁻¹, no unit attached.

Query: Please look up its kf: SYM5/Δ104-106: SYM5 FGF-1 mutant plus Ala103→Gly/ΔGlu104/ΔLys105/ΔAsn106 (protein, UniProt P05230 16-155, looked up, variant L44F L73V V109L L111I C117V A103G del104-106) Fibroblast growth factor 1: FNLPPGNYKKPKLLYCSNGGHFLRILPDGTVDGTRDRSDQHIQFQLSAESVGEVYIKSTETGQYLAMDTDGLVYGSQTPNEECLFLERLEENHYNTYISKKHGWFLGIKKNGSVKRGPRTHYGQKAILFLPLPVSSD
Response: 2.00

Others:
Query: Please look up its kf: SYM6/Δ104-106: SYM6 FGF-1 mutant plus Ala103→Gly/ΔGlu104/ΔLys105/ΔAsn106 (protein, UniProt P05230 16-155, looked up, variant A103G E104* K105* N106*, SYM6 background mutations, SYM6 FGF-1 mutant plus Ala103→Gly/ΔGlu104/ΔLys105/ΔAsn106) Fibroblast growth factor 1: FNLPPGNYKKPKLLYCSNGGHFLRILPDGTVDGTRDRSDQHIQLQLSAESVGEVYIKSTETGQYLAMDTDGLLYGSQTPNEECLFLERLEENHYNTYISKKHGWFVGLKKNGSCKRGPRTHYGQKAILFLPLPVSSD
Response: 30.1

Query: Please look up its kf: SYM5/Δ120-122: SYM5 FGF-1 mutant plus Arg119→Gly/ΔGly120/ΔPro121/ΔArg122, SEQ ID NO: 2 (protein, Human FGF-1 mutant SYM5D120-122) FNLPPGNYKKPKLLYCSNGGHFLRILPDGTVDGTRDRSDQHIQFQLSAESVGEVYIKSTETGQYLAMDTDGLVYGSQTPNEECLFLERLEENHYNTYISKKHAEKNWFLGIKKNGSVKGTHYGQKAILFLPLPVSSD
Response: 7.29
